Molecular target: T1, p105-HA (UniProt P19838 1-968, limits assumed)
T1 construct: Co-expressed with FLAG-tagged KPC1 species in HEK293T cells and detected with anti-NF-κB1 after anti-FLAG immunoprecipitation; also called NF-κB1 p105; NF-kB1 p105; not shown: HA tag
T1 sequence (looked up): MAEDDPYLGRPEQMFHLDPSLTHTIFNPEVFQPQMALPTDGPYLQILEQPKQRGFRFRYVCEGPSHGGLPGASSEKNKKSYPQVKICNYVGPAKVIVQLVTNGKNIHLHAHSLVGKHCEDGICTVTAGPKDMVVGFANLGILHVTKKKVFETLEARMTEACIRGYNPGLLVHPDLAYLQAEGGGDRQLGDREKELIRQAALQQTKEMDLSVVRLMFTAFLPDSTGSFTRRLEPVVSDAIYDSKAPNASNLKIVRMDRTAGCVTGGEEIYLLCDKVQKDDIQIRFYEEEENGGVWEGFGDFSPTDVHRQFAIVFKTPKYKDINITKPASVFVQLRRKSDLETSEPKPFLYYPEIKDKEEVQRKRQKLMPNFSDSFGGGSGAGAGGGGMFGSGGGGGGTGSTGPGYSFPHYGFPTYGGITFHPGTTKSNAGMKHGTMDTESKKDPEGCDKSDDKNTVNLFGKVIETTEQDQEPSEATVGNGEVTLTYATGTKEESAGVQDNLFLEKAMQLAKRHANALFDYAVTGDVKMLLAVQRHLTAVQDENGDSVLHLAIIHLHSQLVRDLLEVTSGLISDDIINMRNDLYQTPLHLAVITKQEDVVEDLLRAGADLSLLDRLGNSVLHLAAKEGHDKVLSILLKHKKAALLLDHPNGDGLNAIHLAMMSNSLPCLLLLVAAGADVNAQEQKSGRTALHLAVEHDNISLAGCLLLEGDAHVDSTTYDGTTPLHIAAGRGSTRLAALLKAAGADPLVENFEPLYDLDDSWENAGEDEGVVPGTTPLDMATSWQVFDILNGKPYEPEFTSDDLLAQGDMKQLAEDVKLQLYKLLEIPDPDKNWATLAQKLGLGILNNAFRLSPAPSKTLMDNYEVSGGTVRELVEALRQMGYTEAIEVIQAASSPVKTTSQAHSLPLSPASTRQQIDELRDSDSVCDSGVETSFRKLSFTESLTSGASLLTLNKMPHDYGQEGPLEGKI
Assay: co-immunoprecipitation (anti-FLAG) from HEK293T cells, western blot

Binder: LVRLW-KPC1 Δ 1-1253 (enzyme, also called KPC1 species xiii) LVRLWCPICYAHPISAVFQPCGHKSCKACINQHLMNNKDCFFCKTTIVSVEDWEKGANTSTTSSAA
binding result: no binding

Binder: KPC1Δ1-1017 (FLAG-tagged) (enzyme, Lacks amino acids 1-1017; also called KPC1 species x) LLQQGPDVAPSFLNSVLNQLNWAFSEFIGMIQEIQQAAERLERNFVDSRQLKVCATCFDLSVSLLRVLEMTITLVPEIFLDWTRPTSEMLLRRLAQLLNQVLNRVTAERNLFDRVVTLRLPGLESVDHYPILVAVTGILVQLLVRGPASEREQATSVLLADPCFQLRSICYLLGQPEPPAPGTALPAPDRKRFSLQSYADYISADELAQVEQMLAHLTSASAQAAAASLPTSEEDLCPICYAHPISAVFQPCGHKSCKACINQHLMNNKDCFFCKTTIVSVEDWEKGANTSTTSSAA
binding result: no binding

Binder: KPC1Δ1-973 (FLAG-tagged) (enzyme, also called KPC1 species ix) WRGCGFGYRYTRLPHLLKTKLEDANLPSLQKPCPSTLLQQHMADLLQQGPDVAPSFLNSVLNQLNWAFSEFIGMIQEIQQAAERLERNFVDSRQLKVCATCFDLSVSLLRVLEMTITLVPEIFLDWTRPTSEMLLRRLAQLLNQVLNRVTAERNLFDRVVTLRLPGLESVDHYPILVAVTGILVQLLVRGPASEREQATSVLLADPCFQLRSICYLLGQPEPPAPGTALPAPDRKRFSLQSYADYISADELAQVEQMLAHLTSASAQAAAASLPTSEEDLCPICYAHPISAVFQPCGHKSCKACINQHLMNNKDCFFCKTTIVSVEDWEKGANTSTTSSAA
binding result: no binding
